Provenance of the data: patent US7468281B2

ASSAY EXPLANATION: LPME of seven basic drugs from water with different acidic acceptor phases, CE analysis
Format: physicochemical
PARTICULARS: acceptor phase 10 mM acetate, measured pH 4.8; water sample, 100 ng/mL

| COMPOUND | Enrichment (average of 3 replicates) |
| --- | --- |
| CCC(=O)C(CC(C)N(C)C)(c1ccccc1)c1ccccc1 (stereo not shown) | 42 |
| CN1CCN(C(c2ccccc2)c2ccc(Cl)cc2)CC1 (stereo not shown) | 3 |
| CC(N)Cc1ccccc1 (stereo not shown) | 90 |
| CN[C@@H](C)Cc1ccccc1 | 128 |

* * *

Recorded Enrichment (average of 3 replicates) for the following compounds
ASSAY EXPLANATION: LPME of seven basic drugs from water with different acidic acceptor phases, CE analysis
Type: physicochemical
PARTICULARS: acceptor phase 10 mM phosphate, measured pH 3.3; water sample, 100 ng/mL

| COMPOUND | Enrichment (average of 3 replicates) |
| --- | --- |
| CN[C@@H](C)Cc1ccccc1 [methamphetamine] | 136 |
| CN1CCN(C(c2ccccc2)c2ccc(Cl)cc2)CC1 (stereo not shown) [chlorcyclizine] | 83 |
| CC(N)Cc1ccccc1 (stereo not shown) [amphetamine] | 123 |
| CCC(=O)C(CC(C)N(C)C)(c1ccccc1)c1ccccc1 (stereo not shown) [methadone] | 134 |

* * *

ASSAY EXPLANATION: LPME of seven basic drugs from water with different acidic acceptor phases, CE analysis
Format: physicochemical
PARTICULARS: acceptor phase 100 mM H2S04, measured pH 1.3; water sample, 100 ng/mL

| MOLECULE | Enrichment (average of 3 replicates) |
| --- | --- |
| CCC(=O)C(CC(C)N(C)C)(c1ccccc1)c1ccccc1 (stereo not shown) | 150 |
| CC(N)Cc1ccccc1 (stereo not shown) | 98 |
| CN[C@@H](C)Cc1ccccc1 | 134 |
| CN1CCN(C(c2ccccc2)c2ccc(Cl)cc2)CC1 (stereo not shown) | 136 |

* * *

ASSAY EXPLANATION: LPME of seven basic drugs from water with different acidic acceptor phases, CE analysis
Assay type: physicochemical
PARTICULARS: acceptor phase 10 mM H3PO4, measured pH 2.5; water sample, 100 ng/mL
QUANTITY NAME: Enrichment (average of 3 replicates)

| MOLECULE | QUANTITY NAME | READOUT VALUE |
| --- | --- | --- |
| CC(N)Cc1ccccc1 (stereo not shown) | Enrichment (average of 3 replicates) | 72 |
| CN1CCN(C(c2ccccc2)c2ccc(Cl)cc2)CC1 (stereo not shown) | Enrichment (average of 3 replicates) | 118 |
| CN[C@@H](C)Cc1ccccc1 | Enrichment (average of 3 replicates) | 96 |
| CCC(=O)C(CC(C)N(C)C)(c1ccccc1)c1ccccc1 (stereo not shown) | Enrichment (average of 3 replicates) | 96 |

* * *

Recorded Enrichment (average of 3 replicates) for the following compounds
ASSAY EXPLANATION: LPME of eight basic drugs from water with phosphate buffer acceptors of different pH, CE analysis
Assay type: physicochemical
PARTICULARS: 10 mM phosphate buffer acceptor pH 3.5; 60 minutes
QUANTITY NAME: Enrichment (average of 3 replicates)

| COMPOUND | READOUT VALUE |
| --- | --- |
| COC(=O)[C@H]1[C@H]2C[C@@H]3c4[nH]c5cc(OC)ccc5c4CCN3C[C@H]2C[C@@H](OC(=O)c2cc(OC)c(OC)c(OC)c2)[C@@H]1OC | 2 |
| CN[C@@H](C)Cc1ccccc1 | 146 |
| CC(N)Cc1ccccc1 (centres unmarked) | 102 |
| COc1ccc2c(c1OC)C(=O)O[C@@H]2[C@H]1c2c(cc3c(c2OC)OCO3)CCN1C | 2 |
| CN1CCN(C(c2ccccc2)c2ccc(Cl)cc2)CC1 (centres unmarked) | 32 |

* * *

ASSAY EXPLANATION: LPME of eight basic drugs from water with phosphate buffer acceptors of different pH, CE analysis
Type: physicochemical
PARTICULARS: 10 mM phosphate buffer acceptor pH 2.5; 60 minutes
Binarize Enrichment (average of 3 replicates) at 100; below is yes, at or above is no.

| COMPOUND | GROUP |
| --- | --- |
| COC(=O)[C@H]1[C@H]2C[C@@H]3c4[nH]c5cc(OC)ccc5c4CCN3C[C@H]2C[C@@H](OC(=O)c2cc(OC)c(OC)c(OC)c2)[C@@H]1OC [reserpin] | yes |
| CN1CCN(C(c2ccccc2)c2ccc(Cl)cc2)CC1 (centres unmarked) [chlorcyclizine] | no |
| COc1ccc2c(c1OC)C(=O)O[C@@H]2[C@H]1c2c(cc3c(c2OC)OCO3)CCN1C [noscapin] | yes |
| CN[C@@H](C)Cc1ccccc1 [methamphetamine] | no |
| CC(N)Cc1ccccc1 (centres unmarked) [amphetamine] | no |

* * *

ASSAY EXPLANATION: LPME of seven basic drugs from water with different acidic acceptor phases, CE analysis
Format: physicochemical
PARTICULARS: acceptor phase 10 mM HCOOH, measured pH 3.1; water sample, 100 ng/mL

| MOLECULE | Enrichment (average of 3 replicates) |
| --- | --- |
| CC(N)Cc1ccccc1 (stereo not shown) | 72 |
| CCC(=O)C(CC(C)N(C)C)(c1ccccc1)c1ccccc1 (stereo not shown) | 114 |
| CN1CCN(C(c2ccccc2)c2ccc(Cl)cc2)CC1 (stereo not shown) | 72 |
| CN[C@@H](C)Cc1ccccc1 | 106 |

* * *

Recorded Enrichment (average of 3 replicates) for the following compounds
ASSAY EXPLANATION: LPME of seven basic drugs from water with different acidic acceptor phases, CE analysis
Type: physicochemical
PARTICULARS: acceptor phase 10 mM HCl, measured pH 2.1; water sample, 100 ng/mL

| COMPOUND | Enrichment (average of 3 replicates) |
| --- | --- |
| CCC(=O)C(CC(C)N(C)C)(c1ccccc1)c1ccccc1 (stereo not shown) [methadone] | 138 |
| CC(N)Cc1ccccc1 (stereo not shown) [amphetamine] | 82 |
| CN1CCN(C(c2ccccc2)c2ccc(Cl)cc2)CC1 (stereo not shown) [chlorcyclizine] | 126 |
| CN[C@@H](C)Cc1ccccc1 [methamphetamine] | 122 |

* * *

Recorded Enrichment (average of 3 replicates) for the following molecules
ASSAY EXPLANATION: LPME of seven basic drugs with different hollow fibres (polypropylene, polysulfone)
Type: physicochemical
PARTICULARS: hollow fibre Polypropylene, 280 μm ID; hexyl ether; 0.01 M hydrochloric acid acceptor

| MOLECULE | Enrichment (average of 3 replicates) |
| --- | --- |
| CN1CCN(C(c2ccccc2)c2ccc(Cl)cc2)CC1 (stereo not shown) | 106 |
| CN[C@@H](C)Cc1ccccc1 | 123 |
| CC(N)Cc1ccccc1 (stereo not shown) | 104 |
| CCC(=O)C(CC(C)N(C)C)(c1ccccc1)c1ccccc1 (stereo not shown) | 138 |

* * *

ASSAY EXPLANATION: LPME of seven basic drugs from water with different acidic acceptor phases, CE analysis
Format: physicochemical
PARTICULARS: acceptor phase 100 mM H3PO4, measured pH 1.8; water sample, 100 ng/mL
Recorded Enrichment (average of 3 replicates) for the following molecules
QUANTITY NAME: Enrichment (average of 3 replicates)

| MOLECULE | READOUT VALUE |
| --- | --- |
| CC(N)Cc1ccccc1 (stereo not shown) | 58 |
| CN1CCN(C(c2ccccc2)c2ccc(Cl)cc2)CC1 (stereo not shown) | 80 |
| CCC(=O)C(CC(C)N(C)C)(c1ccccc1)c1ccccc1 (stereo not shown) | 77 |
| CN[C@@H](C)Cc1ccccc1 | 83 |

* * *

ASSAY EXPLANATION: LPME of seven basic drugs from water with different acidic acceptor phases, CE analysis
Assay type: physicochemical
PARTICULARS: acceptor phase 10 mM CH3COOH, measured pH 3.3; water sample, 100 ng/mL
QUANTITY NAME: Enrichment (average of 3 replicates)

| MOLECULE | READOUT VALUE |
| --- | --- |
| CN[C@@H](C)Cc1ccccc1 | 93 |
| CCC(=O)C(CC(C)N(C)C)(c1ccccc1)c1ccccc1 (stereo not shown) | 86 |
| CC(N)Cc1ccccc1 (stereo not shown) | 66 |
| CN1CCN(C(c2ccccc2)c2ccc(Cl)cc2)CC1 (stereo not shown) | 32 |

* * *

Recorded Enrichment (average of 3 replicates) for the following compounds
ASSAY EXPLANATION: LPME of seven basic drugs from water with different acidic acceptor phases, CE analysis
Assay type: physicochemical
PARTICULARS: acceptor phase 10 mM HNO3, measured pH 1.9; water sample, 100 ng/mL

| COMPOUND | Enrichment (average of 3 replicates) |
| --- | --- |
| CN1CCN(C(c2ccccc2)c2ccc(Cl)cc2)CC1 (stereo not shown) | 120 |
| CC(N)Cc1ccccc1 (stereo not shown) | 48 |
| CCC(=O)C(CC(C)N(C)C)(c1ccccc1)c1ccccc1 (stereo not shown) | 141 |
| CN[C@@H](C)Cc1ccccc1 | 125 |
